experiment: human hepatoma cell viability loss – ATP luminescence, cytotoxicity control for P. falciparum antimalarial project, primary screen (AID 2303); details: HepG2 viability, 24-48 h, at 10 µM, stronger effect = higher value;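 note: 0% = DMSO wells and 100% = digitonin-killed cells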
Below, each entry is listed alongside its reported inhibition.
Field: numeric (%). Do not append units.

{"compound": "COc1cc(CS(C)(=O)=O)ccc1Nc1nccc(-c2c(-c3cccc(NC(=O)c4c(F)cccc4F)c3)nn3ccccc23)n1", "units_text": "%", "inhibition": 46}

Hello, please tell me recorded inhibition for this one: CCN1CCC(N(CCCCCCc2ccc(C(F)(F)F)cc2)C(=O)Cn2c(CCc3cccc(F)c3F)cc(=O)c3ccccc32)CC1 32

###

inhibition listing for selected compounds.
biological target: L-lactate dehydrogenase (Plasmodium falciparum (isolate CDC / Honduras)) (UniProt Q27743); test: PfLDH activity inhibition – cell lysate, 3D7 strain, counter-screen for P. falciparum growth inhibition project (AID 2304);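 note: 0% = vehicle and 100% = reference inhibitor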; conditions: P. falciparum 3D7 crude extract, LDH APAD/NBT absorbance; at 2 µM; stronger effect = higher value
Sequence (Q27743 whole entry, looked up): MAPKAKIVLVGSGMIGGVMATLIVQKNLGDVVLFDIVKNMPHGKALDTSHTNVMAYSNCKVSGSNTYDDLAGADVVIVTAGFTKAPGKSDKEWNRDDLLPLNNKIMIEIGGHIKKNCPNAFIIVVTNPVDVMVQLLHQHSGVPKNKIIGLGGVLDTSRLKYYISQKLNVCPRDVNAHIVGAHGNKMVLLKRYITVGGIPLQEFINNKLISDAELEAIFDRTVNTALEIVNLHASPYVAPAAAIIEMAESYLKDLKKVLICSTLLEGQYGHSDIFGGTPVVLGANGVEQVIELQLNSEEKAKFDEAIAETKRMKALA
Number only, in %; omit the unit.

{"compound": "Cc1cc(Nc2cccc(C(F)(F)F)c2)nc2ccc(NC(=O)c3ccc(=O)[nH]c3)cc12", "quantitative_readout": 0}
{"compound": "CCCCOc1cc2c(cc1OCC)C(C=Cc1ccc(Cl)cc1Cl)=NCC2", "quantitative_readout": -1}
{"compound": "Cc1cc2c(NC(=O)NC3CCN(Cc4ccc(Cl)c(Cl)c4)CC3)cccc2cn1", "quantitative_readout": -2}
{"compound": "CC(C)CCCC(C)NC[C@@H](O)[C@H](Cc1ccccc1)NC(=O)c1cc(N2CCCC2=O)cc(N(c2ccccc2)S(C)(=O)=O)c1 (some centres undefined)", "quantitative_readout": -5}
{"compound": "CC(C)OC(=O)c1cccnc1SCC(=O)Nc1ccc(C(F)(F)F)cc1Cl", "quantitative_readout": -3}
{"compound": "COc1cccc2c(NN=Cc3ccccc3[N+](=O)[O-])cc(C)nc12", "quantitative_readout": -5}
{"compound": "COc1cc(CCNc2nc(NCc3ccccc3-c3ccccc3)nc(N3CCC(N)CC3)n2)ccc1O", "quantitative_readout": -4}
{"compound": "Cn1c(Nc2cc(C(C)(C)C)on2)nc2cc(Nc3ccnc(Nc4ccc(CS(C)(=O)=O)cc4)n3)ccc21", "quantitative_readout": -1}

Moving on to the next compound.
Supply measured inhibition of Cc1ccc(O)cc1Nc1ccnc2ccc(-c3csc(CNCCN4CCOCC4)n3)cc12 in your reply. -2

###

biological target: Calcium-dependent protein kinase 4 (Plasmodium falciparum (isolate 3D7)) (UniProt Q8IBS5); assay: PfCDPK4 kinase inhibitors, biochemical, TCAMS library (AID 1159588); conditions: recombinant PfCDPK4, Kinase-Glo ATP depletion luminescence
Sequence (Q8IBS5 whole entry, looked up): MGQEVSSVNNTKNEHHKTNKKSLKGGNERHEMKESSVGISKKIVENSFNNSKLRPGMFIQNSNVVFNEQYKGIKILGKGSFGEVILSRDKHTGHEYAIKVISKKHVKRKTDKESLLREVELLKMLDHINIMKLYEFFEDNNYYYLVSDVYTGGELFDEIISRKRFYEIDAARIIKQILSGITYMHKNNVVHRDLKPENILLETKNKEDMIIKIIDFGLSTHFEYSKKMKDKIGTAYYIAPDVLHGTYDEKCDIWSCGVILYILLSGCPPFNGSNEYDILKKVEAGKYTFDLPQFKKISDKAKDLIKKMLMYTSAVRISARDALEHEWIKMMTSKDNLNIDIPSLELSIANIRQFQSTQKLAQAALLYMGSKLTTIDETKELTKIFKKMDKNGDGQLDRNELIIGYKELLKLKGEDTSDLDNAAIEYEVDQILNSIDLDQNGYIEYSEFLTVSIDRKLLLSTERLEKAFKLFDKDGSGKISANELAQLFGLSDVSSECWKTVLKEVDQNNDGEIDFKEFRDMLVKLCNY
Measured potencies and affinities stand elsewhere. Activity calls are given as the source filed them. The limit is not given here; nearly all actives have IC50 up to about 0.91 µM.
observed_property: outcome

{"compound": "O=C(Nc1ccc(F)c(C(F)(F)F)c1)N[C@H]1CCN(CCCCCNC(=O)[C@@H]2C[C@H]2c2ccc(Cl)c(Cl)c2)C1", "test_system": "Calcium-dependent protein kinase 4 (Plasmodium falciparum (isolate 3D7)) (UniProt Q8IBS5)", "result": "inactive"}
{"compound": "CC(C)(C)CCN1CCC(CNC(=O)c2cc(-c3cccc(Cl)c3)cs2)C1 (centres undefined)", "test_system": "Calcium-dependent protein kinase 4 (Plasmodium falciparum (isolate 3D7)) (UniProt Q8IBS5)", "result": "inactive"}
{"compound": "CO/C(=C\\C=C\\c1cc2cc(Cl)c(Cl)cc2[nH]1)C(=O)NCCCN1CCC(c2ccccc2)CC1", "test_system": "Calcium-dependent protein kinase 4 (Plasmodium falciparum (isolate 3D7)) (UniProt Q8IBS5)", "result": "inactive"}
{"compound": "O=C(C1CCCCC1)N1CCOC(CCN2CCC(c3ccccc3)CC2)(c2ccc(Cl)c(Cl)c2)C1 (centres undefined)", "test_system": "Calcium-dependent protein kinase 4 (Plasmodium falciparum (isolate 3D7)) (UniProt Q8IBS5)", "result": "inactive"}
